protocol: rescue of alpha-synuclein yeast toxicity, dose response, S. cerevisiae, plate reader, cherry-pick (AID 602273)
test context: S. cerevisiae alpha-synuclein toxicity rescue, OD600 growth, 24 h; at 26 µM (top of the series)
quantity name: growth rescue activity (%)
Give just the number in %; leave the unit off.

So what's the measured growth rescue activity for this one? Cc1ccc(-n2cc(CNCCN3CCOC3=O)c(-c3cccc(C)c3)n2)cc1
0.352

Report growth rescue activity for CC(C)OC(=O)c1ccc(COc2ccc3ccc(=O)oc3c2)o1 please.
2.08

Requested read-out: growth rescue activity. Entry: CC(OC(=O)/C=C/c1ccc2ccccc2n1)C(=O)NCc1ccccc1 (stereo unspecified)
3.64

Which growth rescue activity is listed for COc1ccc(C(=O)Cn2c(C(=O)/C=C/c3ccccc3)nc3ccccc32)cc1 ?
1.68

What value of measured growth rescue activity is listed for O=C(NCc1cccc(F)c1)c1noc2c1CCCC2 ?
10.6

Please look up its growth rescue activity: CC(C)(CNC(=O)/C=C/c1ccc(F)cc1)CNC(=O)/C=C/c1ccc(F)cc1
0.36

Reported growth rescue activity, compound CCCCC(=O)OCC(=O)c1[nH]c(C)c(C(=O)OCC)c1C : ____
2.65

Field request: growth rescue activity | item: Cc1ccc(N2C(=O)NC(=O)/C(=C\C=C\c3ccco3)C2=O)cc1C
1.5

What value of growth rescue activity has been reported for the following compound? O=C(CSc1ccc(Cl)cc1)N1CCN(c2c(Cl)cccc2[N+](=O)[O-])CC1
-19.7

Need growth rescue activity, item Cc1ccc(C(=O)CNc2ccc(Cl)cc2)cc1
5.52

# get_value(readout='growth rescue activity', item= COC(=O)C1CCN(C(=O)COC(=O)c2ccc(OC)c(S(=O)(=O)N3CCCc4ccccc43)c2)CC1 )
-1.07

Given Cc1ccc2cccnc2c1NC(=S)NC(=O)c1ccccc1 , state its recorded growth rescue activity.
-4.6

I'd like to know its growth rescue activity. The compound in question is C/C(Cn1cnc([N+](=O)[O-])n1)=N\NC(=O)c1ccccc1F
-2.85

Returns the measured growth rescue activity for the input compound. Input: CN(Cc1nnc(-c2ccc(F)cc2)o1)c1ccccc1
8.17

Quick one: growth rescue activity of COc1ccc(C(c2c(O)ccc3ccccc23)N2CCOCC2)c(OC)c1 (stereo unspecified) ?
-24.5

Query (compound): O=C(OCc1csc(-c2ccccc2)n1)c1cccs1 ; field requested: growth rescue activity
0.967

Which growth rescue activity is reported for this compound? Nc1nnc(SCc2c(F)cccc2Cl)s1
4.49

Would you kindly share the measured growth rescue activity for CC1CC(C)(C)N(C(=O)NC2CCCCC2)c2ccccc21 (stereo unspecified) ?
12.6

What does the record list as growth rescue activity for COc1ccccc1C(=O)CSc1nnc(-c2ccco2)o1 ?
-9.45

So what's the measured growth rescue activity for this one? CC1(C)CC(=O)C2=C(C1)OC(N)=C(C#N)C2C#Cc1ccccc1 (stereo unspecified)
8.43

Which growth rescue activity value belongs to Cc1cc(C)nc(S/C=C/C(=O)c2ccccc2F)n1 ?
1.06

Dear colleague, I am looking for the recorded growth rescue activity of the following compound: O=C(NC1CCSc2ccccc21)c1ccccc1Cl (stereo unspecified)
-4.11

Any idea what its growth rescue activity is? The compound is O=C(CSCc1ccc(Br)cc1)N1CCCC1
0.808

// query growth rescue activity value for entry O=C1S/C(=C\c2ccc(N3CCOCC3)o2)C(=O)N1Cc1c(F)cccc1Cl
-0.523

Request the reported growth rescue activity associated with O=C(CCC1CCCN(C(=O)c2ccc3cc[nH]c3c2)C1)NCc1ccc(F)c(F)c1 (stereo unspecified)
-2.77

Fill blank: measured growth rescue activity of the compound Cc1ccc(CN2CCN(CC(C)C)C(CCO)C2)s1 (stereo unspecified) is ____.
-1.18

Using the record for c1ccc2c(Nc3nnc(-c4ccncc4)s3)cccc2c1 , report its growth rescue activity.
-9.03

Item under review: COc1ccc(OCc2nnnn2-c2ccccc2)cc1 . Reported growth rescue activity?
-3.39

What value of growth rescue activity has been recorded for this entry: COc1ccc2c(c1OC)C(=O)OC2Nc1nc(-c2ccccc2)cs1 (stereo unspecified)
3.17

For CC(C)(C)c1cc(NC(=O)CCSc2nnc3ccccn23)cc(C(C)(C)C)c1 , what is its reported growth rescue activity?
3.55

Sample Oc1[nH]c(N=C2N=c3ccccc3=N2)c2ccccc12 — what was its growth rescue activity?
-26.4

For the compound shown here, Cc1cccc(NCc2nc3ccccc3n2C)c1 , give the reported growth rescue activity.
-1.89

For the compound Nc1ccc(Sc2cnn(-c3ccccc3)c(=O)c2Cl)cc1 , what growth rescue activity is on record?
1.77

I have this compound here, CC(=O)Cc1cc(O)c2ccccc2c1OC(=O)c1ccccc1 , and I need its recorded growth rescue activity.
-0.443

Which growth rescue activity value belongs to O=C1NC(=O)[C@]2(Cc3ccccc3N3CCN(c4ccccc4)CC32)C(=O)N1Cc1ccccc1 (stereo partly specified) ?
3.15

Which growth rescue activity value belongs to Cc1cc(C(=O)N2CCN(c3ccccn3)CC2)c(C)o1 ?
-0.518

Fill in the blank: the reported growth rescue activity of O=c1[nH]c2c(s1)C=Nc1ccccc1N2 is ____.
4.6

Recorded growth rescue activity for CCN1C(=O)CC(N2CCN(c3ccc(C(=O)c4ccccc4)cc3)CC2)C1=O (stereo unspecified) , please?
-0.853

Fill in: growth rescue activity of CCC(=O)Nc1cccc(C(=O)/C=C/c2ccc(F)cc2)c1 is ___
-9.73

What measured growth rescue activity goes with C=CCN1C(=O)C(Cc2ccc(OCC)cc2)SC1=Nc1ccc(C(=O)O)cc1 (stereo unspecified) ?
18.5

Query (compound): CCOC(=O)Nc1ccc(C(=O)Oc2ccccc2)c(O)c1 ; field requested: growth rescue activity
-4.86

Bench note: what growth rescue activity did O=C1C2CC=CCC2C(=O)N1Cc1nnc(-c2ccc(Cl)cc2)o1 (stereo unspecified) show?
-2.43

Name the recorded growth rescue activity for Cc1cc(C)n(CC(O)COc2ccc(Cl)cc2Cl)n1 (stereo unspecified) .
9.05

Query (compound): CC(=O)N1N=C(c2ccccc2)CC1c1ccccc1[N+](=O)[O-] (stereo unspecified) ; field requested: growth rescue activity
2.51

Give its growth rescue activity value. Item: CCC1(C)N=C(N)Nc2nc3cc(C)c(C)cc3n21 (stereo unspecified)
-2.62

GET /values?readout=growth rescue activity&item= CC1(C)CC(=O)C2=C(C1)Nc1cc3c(cc1C2c1ccc2c(c1)OCO2)OCO3 (stereo unspecified)
11.9
